Test system: enterococci
protocol_description: Minimum inhibitory concentration, microdilution broth method, enterococci
Assay type: cell-based
condition_description: Enterococcus faecalis, E. faecalis GC 4555; Mueller-Hinton broth, 18-22 hours at 35° C.; read-out: MIC E. faecalis GC 4555
For each of the molecules below, state its MIC.
One number for each entry, in µg/mL.

Field: example entries. Status: answers known.
INSERT INTO results (entry_smiles, value_reported) VALUES
  ('CC(C)(C)c1ccc(-c2ccc(C3=C(O)/C(=C/c4ccc(Cl)c(C(F)(F)F)c4)OC3=O)cc2)cc1', 8),
  ('Cc1ccc(C2=C(O)/C(=C/c3ccc(-c4ccc(C)cc4)cc3)OC2=O)cc1', 8);

Turning now to a further record.
What the record says about `COc1ccccc1-c1ccc(/C=C2\OC(=O)C(c3cccc(Cl)c3)=C2O)cc1C` : MIC is 8

###

subject_of_test: S. aureus UDP-N-acetylglucosamine enolpyruvoyl transferase, MurA (Staphylococcus aureus)
Sequence (P84058 1-421): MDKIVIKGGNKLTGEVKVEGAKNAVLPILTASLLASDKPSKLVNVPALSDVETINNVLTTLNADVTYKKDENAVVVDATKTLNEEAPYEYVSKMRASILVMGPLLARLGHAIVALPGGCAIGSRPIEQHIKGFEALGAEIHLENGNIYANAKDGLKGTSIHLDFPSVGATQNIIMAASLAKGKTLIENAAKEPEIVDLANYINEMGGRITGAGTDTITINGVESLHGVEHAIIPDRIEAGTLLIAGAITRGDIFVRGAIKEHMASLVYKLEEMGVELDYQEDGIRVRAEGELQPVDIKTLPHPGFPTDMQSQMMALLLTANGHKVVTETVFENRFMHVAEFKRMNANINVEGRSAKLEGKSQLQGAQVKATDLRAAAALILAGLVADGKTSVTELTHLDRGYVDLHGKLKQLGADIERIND
pIC50: −log10 of the molar value.
observation_type: pIC50

Answered cases to consult:
INSERT INTO assay_data (entry_smiles, observation_type, value_reported) VALUES
  ('O=C1O/C(=C\c2ccc(-c3ccccc3)cc2)C(O)=C1c1cccs1', 'pIC50', '< 4.14'),
  ('O=C1O/C(=C\c2ccc(N3CCOCC3)c3ccccc23)C(O)=C1c1cccc(Cl)c1', 'pIC50', '< 4.24'),
  ('O=C1O/C(=C\c2cccc3ccccc23)C(O)=C1c1ccc(C(F)(F)F)cc1', 'pIC50', '< 4.18'),
  ('COc1ccccc1-c1ccc(/C=C2\OC(=O)C(c3ccc(Cl)c(Cl)c3)=C2O)cc1OC', 'pIC50', '< 4.27');

Please fill in: pIC50 reported for `CN(C)c1ccc(/C=C2\OC(=O)C(c3ccc(C(F)(F)F)cc3)=C2O)c2ccccc12` = < 4.23

###

subject_of_test: E. coli UDP-N-acetylglucosamine enolpyruvoyl transferase, MurA (Escherichia coli)
Sequence (P0A749 whole entry): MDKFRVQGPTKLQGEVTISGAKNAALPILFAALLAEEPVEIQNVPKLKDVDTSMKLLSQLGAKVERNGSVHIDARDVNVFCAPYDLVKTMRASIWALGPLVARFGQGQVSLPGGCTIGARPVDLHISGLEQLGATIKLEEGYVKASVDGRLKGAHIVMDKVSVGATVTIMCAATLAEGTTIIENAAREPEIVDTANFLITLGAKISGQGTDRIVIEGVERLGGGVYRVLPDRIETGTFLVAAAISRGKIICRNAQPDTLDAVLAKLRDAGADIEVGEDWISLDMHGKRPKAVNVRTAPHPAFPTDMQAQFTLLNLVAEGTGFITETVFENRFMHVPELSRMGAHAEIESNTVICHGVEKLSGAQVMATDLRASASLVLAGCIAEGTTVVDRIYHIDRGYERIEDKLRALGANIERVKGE
Please respond with reported IC50 for every item in the list.

Previously resolved entries follow.
INSERT INTO assay_data (compound, subject_of_test, value_reported) VALUES
  ('O=C1O/C(=C\C2CCCCC2)C(O)=C1c1ccc(-c2ccccc2)cc1 [Example 100]', 'E. coli UDP-N-acetylglucosamine enolpyruvoyl transferase, MurA (Escherichia coli)', '> 72.2 µM'),
  ('O=C1O/C(=C\c2ccc(-c3ccccc3)cc2)C(O)=C1c1ccc(Cl)cc1 [Example 53]', 'E. coli UDP-N-acetylglucosamine enolpyruvoyl transferase, MurA (Escherichia coli)', '> 66.7 µM');

Turning now to a further compound:
GET /value?item= COc1ccc(C2=C(O)/C(=C/c3ccc(-c4ccccc4)cc3)OC2=O)cc1 [Example 9] &field=IC50 returns > 67.5 µM
